Measured values drawn from the supplement of paper PMC11061612 for this set.

Tested on: NB69 (Neuroblastoma)
measurement_protocol: combination Emax (second highest fraction inhibited in the dose matrix, 72 h); higher = more inhibition; extreme values may be limits of the assay
Task for the reader: assign each of the following molecules its reported combination Emax.
Response field accepts a number only; no unit should be typed.

Requested field: combination Emax. Item: CC(=O)c1c(C)c2cnc(Nc3ccc(N4CCNCC4)cn3)nc2n(C2CCCC2)c1=O [Palbociclib] + Cn1cnc2c(F)c(Nc3ccc(Br)cc3Cl)c(C(=O)NOCCO)cc21 [Selumetinib] (first compound max 10 µM, 7x7, partner max 10 µM) 0.988

Requested field: combination Emax. Item: COc1cccc(OCCCN)c1-c1cc(Nc2cnc(C#N)cn2)n[nH]1 [Prexasertib] + CCc1c2c(nc3ccc(O)cc13)-c1cc3c(c(=O)n1C2)COC(=O)[C@]3(O)CC [SN-38] (first compound max 1 µM, 7x7, partner max 0.3 µM) 1

Requested field: combination Emax. Item: COc1cccc(OCCCN)c1-c1cc(Nc2cnc(C#N)cn2)n[nH]1 [Prexasertib] + Cc1cc2ncnn2cc1Nc1ncc2c(n1)n(C1CCOCC1)c(=O)n2C [AZD7648] (first compound max 1 µM, 7x7, partner max 10 µM) 0.906

###

Tested on: TK10 (Kidney Carcinoma)
measurement_protocol: combination Emax (second highest fraction inhibited in the dose matrix, 72 h); higher = more inhibition; extreme values may be limits of the assay
quantity: combination Emax
Response field accepts a number only; no unit should be typed.

Requested field: combination Emax. Item: C[C@@H](c1ccc2nccn2c1)n1nnc2ncc(-c3cnn(C)c3)nc21 [Savolitinib] + CC1(C)CCC(CN2CCN(c3ccc(C(=O)NS(=O)(=O)c4ccc(NCC5CCOCC5)c([N+](=O)[O-])c4)c(Oc4cnc5[nH]ccc5c4)c3)CC2)=C(c2ccc(Cl)cc2)C1 [Venetoclax] (first compound max 1 µM, 7x7, partner max 1 µM) 0.106

Requested field: combination Emax. Item: NC1(C(=O)N[C@@H](CCO)c2ccc(Cl)cc2)CCN(c2ncnc3[nH]ccc23)CC1 [Capivasertib] + CC(=O)c1c(C)c2cnc(Nc3ccc(N4CCNCC4)cn3)nc2n(C2CCCC2)c1=O [Palbociclib] (first compound max 10 µM, 7x7, partner max 10 µM) 0.516

Requested field: combination Emax. Item: C=CCn1c(=O)c2cnc(Nc3ccc(N4CCN(C)CC4)cc3)nc2n1-c1cccc(C(C)(C)O)n1 [AZD1775] + O=C(c1cc(Cc2n[nH]c(=O)c3ccccc23)ccc1F)N1CCN(C(=O)C2CC2)CC1 [Olaparib] (first compound max 1 µM, partner max 10 µM) 0.455

###

Task for the reader: assign each of the following molecules its reported Bliss excess.
Tested on: JVM-3 (B-Cell Non-Hodgkin's Lymphoma)
measurement_protocol: Bliss excess, mean over the matrix (fraction); higher = more synergy
Response field accepts a number only; no unit should be typed.

Requested field: Bliss excess. Item: CN(CCO)CC[C@H](CSc1ccccc1)Nc1ccc(S(=O)(=O)NC(=O)c2ccc(N3CCC([C@@H](O)c4ccccc4-c4ccc(Cl)cc4)CC3)cc2)cc1S(=O)(=O)C(F)(F)F [AZD4320] + CN(C)CCCOc1ccc(-c2ccc3ncc4c(c3c2)n(C2CCOCC2)c(=O)n4C)cn1 [AZD0156] (first compound max 1 µM, 7x7, partner max 1 µM) 0.0006

Requested field: Bliss excess. Item: CC1(C)CCC(CN2CCN(c3ccc(C(=O)NS(=O)(=O)c4ccc(NCC5CCOCC5)c([N+](=O)[O-])c4)c(Oc4cnc5[nH]ccc5c4)c3)CC2)=C(c2ccc(Cl)cc2)C1 [Venetoclax] + Cc1cc2ncnn2cc1Nc1ncc2c(n1)n(C1CCOCC1)c(=O)n2C [AZD7648] (first compound max 1 µM, 7x7, partner max 10 µM) -0.0799

Requested field: Bliss excess. Item: C=CCn1c(=O)c2cnc(Nc3ccc(N4CCN(C)CC4)cc3)nc2n1-c1cccc(C(C)(C)O)n1 [AZD1775] + C1CN(CCC1(C(=O)N[C@@H](CCO)C2=CC=C(C=C2)Cl)N)C3=NC=NC4=C3C=CN4 [Capivasertib] (first compound max 3 µM, partner max 3 µM) 0.0012

Requested field: Bliss excess. Item: CC1(C)CCC(CN2CCN(c3ccc(C(=O)NS(=O)(=O)c4ccc(NCC5CCOCC5)c([N+](=O)[O-])c4)c(Oc4cnc5[nH]ccc5c4)c3)CC2)=C(c2ccc(Cl)cc2)C1 [Venetoclax] + C1CN(CCC1(C(=O)N[C@@H](CCO)C2=CC=C(C=C2)Cl)N)C3=NC=NC4=C3C=CN4 [Capivasertib] (first compound max 1 µM, 7x7, partner max 3 µM) 0.0192

Requested field: Bliss excess. Item: Cc1c2c(nn1C)CSCc1cc(n(C)n1)CSc1cc(c3ccccc3c1)OCCCc1c(C(=O)O)n(C)c3c-2c(Cl)ccc13 [AZD5991] + CCN(CCO)CCCOc1ccc2c(Nc3cc(CC(=O)Nc4cccc(F)c4)[nH]n3)ncnc2c1 [AZD2811] (first compound max 1 µM, 7x7, partner max 1 µM) 0.0892

Requested field: Bliss excess. Item: CCc1c2c(nc3ccc(O)cc13)-c1cc3c(c(=O)n1C2)COC(=O)[C@]3(O)CC [SN-38] + CN(C)CCCOc1ccc(-c2ccc3ncc4c(c3c2)n(C2CCOCC2)c(=O)n4C)cn1 [AZD0156] (first compound max 0.3 µM, 7x7, partner max 1 µM) -0.0309

###

System: SW13 (Other Solid Carcinomas)
measurement_protocol: Bliss excess, mean over the matrix (fraction); higher = more synergy
quantity: Bliss excess
Response field accepts a number only; no unit should be typed.

Requested field: Bliss excess. Item: COc1cccc(OCCCN)c1-c1cc(Nc2cnc(C#N)cn2)n[nH]1 [Prexasertib] + O=C(c1cc(Cc2n[nH]c(=O)c3ccccc23)ccc1F)N1CCN(C(=O)C2CC2)CC1 [Olaparib] (first compound max 1 µM, 7x7, partner max 10 µM) 0.0024

Requested field: Bliss excess. Item: CS(=O)(=O)CCNCc1ccc(-c2ccc3ncnc(Nc4ccc(OCc5cccc(F)c5)c(Cl)c4)c3c2)o1 [Lapatinib] + NC1(c2ccc(-c3nc4ccn5c(=O)[nH]nc5c4cc3-c3ccccc3)cc2)CCC1 [MK-2206] (first compound max 10 µM, 7x7, partner max 10 µM) -0.0229

Requested field: Bliss excess. Item: C=CCn1c(=O)c2cnc(Nc3ccc(N4CCN(C)CC4)cc3)nc2n1-c1cccc(C(C)(C)O)n1 [AZD1775] + CCc1c2c(nc3ccc(O)cc13)-c1cc3c(c(=O)n1C2)COC(=O)[C@]3(O)CC [SN-38] (first compound max 1 µM, partner max 0.3 µM) 0.0119

Requested field: Bliss excess. Item: CC1(C)CCC(CN2CCN(c3ccc(C(=O)NS(=O)(=O)c4ccc(NCC5CCOCC5)c([N+](=O)[O-])c4)c(Oc4cnc5[nH]ccc5c4)c3)CC2)=C(c2ccc(Cl)cc2)C1 [Venetoclax] + CN(C)CCCOc1ccc(-c2ccc3ncc4c(c3c2)n(C2CCOCC2)c(=O)n4C)cn1 [AZD0156] (first compound max 1 µM, 7x7, partner max 1 µM) 0.027

Requested field: Bliss excess. Item: O=C(c1cc(Cc2n[nH]c(=O)c3ccccc23)ccc1F)N1CCN(C(=O)C2CC2)CC1 [Olaparib] + CC1(C)CCC(CN2CCN(c3ccc(C(=O)NS(=O)(=O)c4ccc(NCC5CCOCC5)c([N+](=O)[O-])c4)c(Oc4cnc5[nH]ccc5c4)c3)CC2)=C(c2ccc(Cl)cc2)C1 [Venetoclax] (first compound max 10 µM, 7x7, partner max 1 µM) -0.0309

Requested field: Bliss excess. Item: Cc1c2c(nn1C)CSCc1cc(n(C)n1)CSc1cc(c3ccccc3c1)OCCCc1c(C(=O)O)n(C)c3c-2c(Cl)ccc13 [AZD5991] + CCN(CCO)CCCOc1ccc2c(Nc3cc(CC(=O)Nc4cccc(F)c4)[nH]n3)ncnc2c1 [AZD2811] (first compound max 1 µM, 7x7, partner max 1 µM) 0.0895

###

Test system: NCI-H358 (Lung Adenocarcinoma)
measurement_protocol: combination Emax (second highest fraction inhibited in the dose matrix, 72 h); higher = more inhibition; extreme values may be limits of the assay
Lab note: compare combination Emax against 0.5. Equal or greater, write y. Smaller, write n.

Exam item: decide whether the reported combination Emax for CC1(C)CCC(CN2CCN(c3ccc(C(=O)NS(=O)(=O)c4ccc(NCC5CCOCC5)c([N+](=O)[O-])c4)c(Oc4cnc5[nH]ccc5c4)c3)CC2)=C(c2ccc(Cl)cc2)C1 [Venetoclax] + CCN(CCO)CCCOc1ccc2c(Nc3cc(CC(=O)Nc4cccc(F)c4)[nH]n3)ncnc2c1 [AZD2811] (first compound max 1 µM, 7x7, partner max 1 µM) is at least 0.5. n

Exam item: decide whether the reported combination Emax for CCN(CCO)CCCOc1ccc2c(Nc3cc(CC(=O)Nc4cccc(F)c4)[nH]n3)ncnc2c1 [AZD2811] + C[C@@H]1COCCN1C2=NC(=NC(=C2)C3(CC3)[S@](=N)(=O)C)C4=C5C=CNC5=NC=C4 [AZD6738] (first compound max 1 µM, 7x7, partner max 10 µM) is at least 0.5. y

Exam item: decide whether the reported combination Emax for C=CCn1c(=O)c2cnc(Nc3ccc(N4CCN(C)CC4)cc3)nc2n1-c1cccc(C(C)(C)O)n1 [AZD1775] + C[C@@H]1COCCN1C2=NC(=NC(=C2)C3(CC3)[S@](=N)(=O)C)C4=C5C=CNC5=NC=C4 [AZD6738] (first compound max 1 µM, partner max 10 µM) is at least 0.5. y

Exam item: decide whether the reported combination Emax for CN(CCO)CC[C@H](CSc1ccccc1)Nc1ccc(S(=O)(=O)NC(=O)c2ccc(N3CCC([C@@H](O)c4ccccc4-c4ccc(Cl)cc4)CC3)cc2)cc1S(=O)(=O)C(F)(F)F [AZD4320] + CC(=O)O[C@H]1C(=O)[C@@]2(C)[C@H]([C@H](OC(=O)c3ccccc3)[C@]3(O)C[C@H](OC(=O)[C@H](O)[C@@H](NC(=O)c4ccccc4)c4ccccc4)C(C)=C1C3(C)C)[C@]1(OC(C)=O)CO[C@@H]1C[C@@H]2O [Paclitaxel] (first compound max 1 µM, 7x7, partner max 3 µM) is at least 0.5. y

Exam item: decide whether the reported combination Emax for COc1nnc2ccc(N3CCC(c4ccc(OCCN5CCN(C)C(=O)[C@H]5C)cc4)CC3)nn12 [AZD5153] + Cn1cnc2c(F)c(Nc3ccc(Br)cc3Cl)c(C(=O)NOCCO)cc21 [Selumetinib] (first compound max 1 µM, 7x7, partner max 10 µM) is at least 0.5. y

Exam item: decide whether the reported combination Emax for Cc1c2c(nn1C)CSCc1cc(n(C)n1)CSc1cc(c3ccccc3c1)OCCCc1c(C(=O)O)n(C)c3c-2c(Cl)ccc13 [AZD5991] + Cn1cnc2c(F)c(Nc3ccc(Br)cc3Cl)c(C(=O)NOCCO)cc21 [Selumetinib] (first compound max 1 µM, 7x7, partner max 3 µM) is at least 0.5. n

Exam item: decide whether the reported combination Emax for N#Cc1cnc(Nc2cc(NC[C@H]3CNCCO3)c(C(F)(F)F)cn2)cn1 [SRA737] + CCc1c2c(nc3ccc(O)cc13)-c1cc3c(c(=O)n1C2)COC(=O)[C@]3(O)CC [SN-38] (first compound max 10 µM, 7x7, partner max 0.3 µM) is at least 0.5. y

Exam item: decide whether the reported combination Emax for COc1nnc2ccc(N3CCC(c4ccc(OCCN5CCN(C)C(=O)[C@H]5C)cc4)CC3)nn12 [AZD5153] + CC1(C)CCC(CN2CCN(c3ccc(C(=O)NS(=O)(=O)c4ccc(NCC5CCOCC5)c([N+](=O)[O-])c4)c(Oc4cnc5[nH]ccc5c4)c3)CC2)=C(c2ccc(Cl)cc2)C1 [Venetoclax] (first compound max 1 µM, 7x7, partner max 1 µM) is at least 0.5. n

Exam item: decide whether the reported combination Emax for C[C@@H](Oc1cc(-c2cnn(C3CCNCC3)c2)cnc1N)c1c(Cl)ccc(F)c1Cl [Crizotinib] + CC1=C(C(=CC=C1)Cl)NC(=O)C2=CN=C(S2)NC3=CC(=NC(=N3)C)N4CCN(CC4)CCO [Dasatinib] (first compound max 10 µM, 7x7, partner max 2 µM) is at least 0.5. y

Exam item: decide whether the reported combination Emax for CN(C)CCCOc1ccc(-c2ccc3ncc4c(c3c2)n(C2CCOCC2)c(=O)n4C)cn1 [AZD0156] + O=C(c1cc(Cc2n[nH]c(=O)c3ccccc23)ccc1F)N1CCN(C(=O)C2CC2)CC1 [Olaparib] (first compound max 3 µM, partner max 3 µM) is at least 0.5. n

Exam item: decide whether the reported combination Emax for Cc1c2c(nn1C)CSCc1cc(n(C)n1)CSc1cc(c3ccccc3c1)OCCCc1c(C(=O)O)n(C)c3c-2c(Cl)ccc13 [AZD5991] + Nc1ccn([C@@H]2O[C@H](CO)[C@@H](O)C2(F)F)c(=O)n1 [Gemcitabine] (first compound max 1 µM, 7x7, partner max 0.3 µM) is at least 0.5. n
